Target: porcine gastric H^+/K^+-ATPase (Sus scrofa, UniProt P19156)
Construct: prepared from mucous membrane in fresh porcine stomachs by homogenization
Sequence (P19156 2-1034 limits assumed): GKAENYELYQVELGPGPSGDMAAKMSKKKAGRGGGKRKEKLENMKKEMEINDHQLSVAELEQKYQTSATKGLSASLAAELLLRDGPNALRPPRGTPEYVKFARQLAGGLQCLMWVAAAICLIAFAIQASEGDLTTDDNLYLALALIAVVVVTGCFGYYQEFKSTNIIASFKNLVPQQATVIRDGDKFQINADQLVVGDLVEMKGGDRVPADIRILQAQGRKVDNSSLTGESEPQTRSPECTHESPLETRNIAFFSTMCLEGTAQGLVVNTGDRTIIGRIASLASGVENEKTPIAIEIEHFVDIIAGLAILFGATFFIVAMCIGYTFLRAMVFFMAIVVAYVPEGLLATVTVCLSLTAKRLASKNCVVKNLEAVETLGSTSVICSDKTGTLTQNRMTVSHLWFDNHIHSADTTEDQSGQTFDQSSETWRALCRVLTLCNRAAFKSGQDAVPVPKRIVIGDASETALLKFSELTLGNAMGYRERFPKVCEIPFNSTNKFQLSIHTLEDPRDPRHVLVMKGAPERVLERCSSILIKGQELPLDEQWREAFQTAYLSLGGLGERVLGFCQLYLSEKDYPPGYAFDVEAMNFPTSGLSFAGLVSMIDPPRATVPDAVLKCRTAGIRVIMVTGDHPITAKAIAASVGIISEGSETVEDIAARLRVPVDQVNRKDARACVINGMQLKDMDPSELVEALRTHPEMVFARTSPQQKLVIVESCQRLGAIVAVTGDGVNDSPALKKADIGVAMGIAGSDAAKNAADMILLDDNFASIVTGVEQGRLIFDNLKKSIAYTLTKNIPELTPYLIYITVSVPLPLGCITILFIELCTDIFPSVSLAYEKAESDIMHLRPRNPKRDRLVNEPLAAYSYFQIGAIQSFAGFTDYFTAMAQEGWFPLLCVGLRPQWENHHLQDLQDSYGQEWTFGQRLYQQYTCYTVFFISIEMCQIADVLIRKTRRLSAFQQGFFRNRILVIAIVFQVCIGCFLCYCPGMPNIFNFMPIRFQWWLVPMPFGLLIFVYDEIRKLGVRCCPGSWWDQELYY
Sequence (P18434 whole entry partner): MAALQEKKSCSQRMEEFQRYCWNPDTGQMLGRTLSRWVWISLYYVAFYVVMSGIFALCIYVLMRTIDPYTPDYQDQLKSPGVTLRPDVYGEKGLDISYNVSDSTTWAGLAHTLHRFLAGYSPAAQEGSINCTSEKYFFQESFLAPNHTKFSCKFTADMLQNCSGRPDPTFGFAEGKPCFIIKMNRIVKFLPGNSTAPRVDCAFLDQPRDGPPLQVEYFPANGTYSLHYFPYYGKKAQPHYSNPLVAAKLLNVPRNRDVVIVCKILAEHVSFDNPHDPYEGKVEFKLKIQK
Test: Ion-tight porcine gastric H+/K+-ATPase inhibition
Details: ion-tight gastric vesicles, 150 mM KCl, 15 μM valinomycin, pH 7.4, 37° C., 30 minutes; read-out: IC50 of the inhibitory activity
METRIC_NAME: IC50 (nM)

Cc1nc2c(NC3CCOc4ccccc43)cc(C(=O)N3CCOCC3)cn2c1CO (single isomer, unassigned; (-)) [Example 7-2]	96
Cc1cccc2c1[C@@H](Nc1cc(C(=O)N(C)C)cn3c(CO)c(C)nc13)CCO2 (single isomer, unassigned)	84
Cc1nc2c(NC3CCOc4cccc(F)c43)cc(C(=O)N3CCOCC3)cn2c1CO (racemic) [Example 9-1]	47
Cc1nc2c(NC3CCOc4cccc(F)c43)cc(C(=O)N(C)C)cn2c1CO (single isomer, unassigned; (+)) [Example 4-3]	30
Cc1nc2c(NC3CCOc4ccccc43)cc(C(=O)N(C)C)cn2c1CO (single isomer, unassigned; (-)) [Example 2-3]	67
Cc1nc2c(NC3CCOc4cc(F)cc(F)c43)cc(C(=O)N3CCOCC3)cn2c1CO (single isomer, unassigned; (+)) [Example 8-2]	40
Cc1nc2c(NC3CCOc4ccccc43)cc(C(=O)N(C)C)cn2c1CO (racemic) [Example 2-1]	75
Cc1nc2c(NC3CCOc4cc(F)cc(F)c43)cc(C(=O)N3CCOCC3)cn2c1CO (racemic) [Example 8-1]	55
Cc1cccc2c1C(Nc1cc(C(=O)N3CCOCC3)cn3c(CO)c(C)nc13)CCO2 (single isomer, unassigned; (+)) [Example 6-3]	61
Cc1nc2c(NC3CCOc4cc(F)cc(F)c43)cc(C(=O)N3CCOCC3)cn2c1CO (single isomer, unassigned; (-)) [Example 8-3]	52

A: Cc1nc2c(NC3CCOc4cccc(F)c43)cc(C(=O)N3CCOCC3)cn2c1CO (single isomer, unassigned; (+)) [Example 9-2]
B: Cc1nc2c(NC3CCOc4cc(F)cc(F)c43)cc(C(=O)N(C)C)cn2c1CO (single isomer, unassigned) [Example 3-2]
Recorded IC50 values differ for A and B ; which one is higher? State the label of the item chosen.
A
